Test system: SNB-75 CNS
Test: NCI tumour cell line growth inhibition, 48 h
Everything with TGI lower than 20 µM is Not satisfied; everything else, including exactly 20 µM, is Satisfied.

{"compound": "Cc1cccc(C)c1NC(=O)CCC(=O)NC(N)=NC#N", "classification": "Satisfied"}
{"compound": "C/C=C/C(=O)Oc1cccc2cccnc12", "classification": "Satisfied"}
{"compound": "COC(=O)c1c[nH]c2cc(OC(C)C)c(OC(C)C)cc2c1=O", "classification": "Satisfied"}
{"compound": "O=C1/C(=C\\c2ccc(F)cc2)CN(C(=O)c2ccccc2F)C/C1=C\\c1ccc(F)cc1", "classification": "Not satisfied"}
{"compound": "CC(C)(C)[Si](C)(C)OCC1OC(n2cnc3c(=O)[nH]cnc32)CC1O (stereo unspecified)", "classification": "Satisfied"}
{"compound": "C#C[C@@]1(O)[C@@H](CO)O[C@@H](n2cc(Br)c3c(Cl)ccnc32)[C@@H]1O", "classification": "Satisfied"}
{"compound": "Cc1ccc(N)cc1[As]=[As]c1cc(N)ccc1C (stereo unspecified)", "classification": "Not satisfied"}
{"compound": "COC(=O)/C=C/CCC#Cc1ccccc1C#CCC/C=C/C(=O)OC", "classification": "Not satisfied"}
{"compound": "Cc1ccccc1NC(=O)Cc1nc2ccccc2s1", "classification": "Satisfied"}
{"compound": "O=C1C=C(c2ccccc2)OC1C1Sc2ccccc2NC1=O (stereo unspecified)", "classification": "Satisfied"}
{"compound": "Cn1c(CCCC(=O)O)nc2cc(N(CCCl)CCCl)ccc21", "classification": "Satisfied"}
{"compound": "CN(c1ccccc1)c1cc2ccccc2nn1", "classification": "Satisfied"}
{"compound": "NC(=O)c1c(NC(=O)c2cccs2)sc2c1CCC(=O)C2", "classification": "Not satisfied"}
{"compound": "CN(C)NC(=O)/C(=C/c1ccc(Cl)cc1)NC(=O)c1ccccc1", "classification": "Satisfied"}
{"compound": "CNC(=O)C(C)Oc1ccc(OCC2CCCCC2)cc1 (stereo unspecified)", "classification": "Satisfied"}
{"compound": "O=c1[nH]c2c(c(=O)[nH]1)SC(c1ccccc1)C2 (stereo unspecified)", "classification": "Satisfied"}
{"compound": "CN(C)c1ccc(C=Nc2ccc(-c3nc4ccccc4s3)cc2)cc1", "classification": "Satisfied"}
{"compound": "O=C(Nc1nc(-c2ccc(Cl)cc2)cs1)c1cc(O)c(O)c(O)c1", "classification": "Satisfied"}
{"compound": "Clc1cccc(-c2nc3cccc4c3n2Cc2ncccc2-4)c1", "classification": "Satisfied"}
{"compound": "Nc1[nH]nc2nc(-c3cc(Cl)ccc3Cl)cc(-c3ccc(F)cc3)c12", "classification": "Satisfied"}
{"compound": "COc1ccc2c(c1)CCc1c-2[nH]c2cc3c(cc2c1=O)OCO3", "classification": "Satisfied"}
{"compound": "CC(=O)OCC1OC(n2cccnc2=O)C(OC(C)=O)C1OC(C)=O (stereo unspecified)", "classification": "Satisfied"}
{"compound": "CCc1nc(C)cn1C(=O)OCc1nc2nc(Cl)nc(N3CCOCC3)c2[nH]1", "classification": "Not satisfied"}
{"compound": "C[C@@H](Nc1cc(F)cc(F)c1)c1cc(C(=O)N(C)C)cc2c(=O)cc(N3CCOCC3)oc12", "classification": "Not satisfied"}
{"compound": "CNC(=O)ON(C(C)=O)C(=O)NC", "classification": "Satisfied"}
{"compound": "NS(=O)(=O)c1ccc(N=Nc2ccc[nH]c2=O)cc1", "classification": "Satisfied"}
{"compound": "CCCCCCCCOC(=O)C12Oc3ccc(-c4ccc5c(c4O)C(O)=C4C(=O)CC(C)C(O)C4(C(=O)OCCCCCCCC)O5)c(O)c3C(O)=C1C(=O)CC(C)C2O (stereo unspecified)", "classification": "Satisfied"}
{"compound": "O=C1C=C(NCCO)c2nccc3c2c1nc1ccccc13", "classification": "Satisfied"}
{"compound": "COC(=O)C1(C(=O)OC)N=C(C)OC1c1ccccc1O (stereo unspecified)", "classification": "Satisfied"}
{"compound": "COc1ccc(Cc2cc(Cc3ccc(OC)cc3)cc(Cc3ccc(OC)cc3)c2)cc1", "classification": "Satisfied"}
{"compound": "CC1=NN(c2ccc(S(=O)(=O)O)cc2)C2(C1)C(Cl)C(=O)N2c1nc2ccccc2s1 (stereo unspecified)", "classification": "Satisfied"}
{"compound": "CN1CCN(CCCNC(=O)c2c3c(n4ccccc24)C(=O)c2ncccc2C3=O)CC1", "classification": "Not satisfied"}
{"compound": "Brc1ccccc2cc(-c3ccccc3)nc1-2", "classification": "Satisfied"}
{"compound": "N#C/C(=C\\c1cc(O)c(O)c(O)c1)C(N)=O", "classification": "Satisfied"}
{"compound": "CCN(CC)C1Oc2cc3c(cc2C(c2cc(OC)c(O)c(OC)c2)C1C)OCO3 (stereo unspecified)", "classification": "Satisfied"}
